# Tested on: H. influenza Hi47 clinical strain, Ampicillin Resistant
# protocol.summary: organism not typed
# Type: cell-based
# reported.conditions: read-out: MIC Hi47
quantity.measured: MIC

Hey, H. influenza Hi47 clinical strain, Ampicillin Resistant data for COC[C@@H]1[C@@H](O)[C@@H]2[C@H]3C=C[C@@H]4[C@@H](COC)C(=O)O[C@H]([C@H](O)COC)[C@H](C)/C=C(\C)[C@@]24O[C@H]3[C@@H]1OC(=O)c1ccon1 [Compound 13, 8-O-Isoxazole-3′-carbonylbranimycin] : MIC came out at 64 µg/mL

Hey, H. influenza Hi47 clinical strain, Ampicillin Resistant data for COC[C@@H](O)[C@H]1OC(=O)[C@H](COC)[C@H]2C=C[C@H]3[C@H]4O[C@]2(/C(C)=C/[C@H]1C)[C@@H]3[C@H](O)[C@@H](C)[C@H]4OC(=O)c1ccc[nH]1 [Compound 3, 8-O-1H-pyrrole-2′-carbonylbaleomycin] : MIC came out at > 64 µg/mL

Hey, H. influenza Hi47 clinical strain, Ampicillin Resistant data for COC[C@@H]1[C@@H](O)[C@@H]2[C@H]3CC[C@@H]4[C@@H](COC)C(=O)O[C@H]([C@H](O)COC)[C@H](C)/C=C(\C)[C@@]24O[C@H]3[C@@H]1OC(=O)c1ccc[nH]1 [Compound 16] : MIC came out at > 64 µg/mL

Hey, H. influenza Hi47 clinical strain, Ampicillin Resistant data for COC[C@@H]1[C@@H](O)[C@@H]2[C@H]3C=C[C@@H]4[C@@H](COC)C(=O)O[C@H]([C@H](O)COC)[C@H](C)/C=C(\C)[C@@]24O[C@H]3[C@@H]1OC(=O)c1cc(C)n[nH]1 [Compound 39] : MIC came out at > 64 µg/mL

###

Attribute: MIC
# Test system: H. influenza Hi47 clinical strain, Ampicillin Resistant
# protocol.summary: organism not typed
# Format: cell-based
# reported.conditions: read-out: MIC Hi47

// known answers, use as guide
COC[C@@H]1[C@@H](O)[C@@H]2[C@H]3C=C[C@@H]4[C@@H](COC)C(=O)O[C@H]([C@H](O)COC)[C@H](C)/C=C(\C)[C@@]24O[C@H]3[C@@H]1OC(=O)c1ccc[nH]1 ... > 64 µg/mL
COCC[C@H]1OC(=O)[C@H](COC)[C@H]2C=C[C@H]3[C@H]4O[C@]2(/C(C)=C/[C@H]1C)[C@@H]3[C@H](O)[C@@H](COC)[C@H]4O ... > 64 µg/mL

MIC reported for this molecule CO[C@H]1C[C@H]2C=C[C@H]3[C@H]4O[C@]2(/C(C)=C/[C@@H](C)[C@@H]([C@@H](C)O)OC1=O)[C@@H]3[C@H](O)[C@@H](C)[C@H]4O [Nodusmicin, reference compound] : 32 µg/mL

###

# tested.system: DNA III Polymerase E (Escherichia coli, UniProt P10443)
# Sequence (P10443 whole entry): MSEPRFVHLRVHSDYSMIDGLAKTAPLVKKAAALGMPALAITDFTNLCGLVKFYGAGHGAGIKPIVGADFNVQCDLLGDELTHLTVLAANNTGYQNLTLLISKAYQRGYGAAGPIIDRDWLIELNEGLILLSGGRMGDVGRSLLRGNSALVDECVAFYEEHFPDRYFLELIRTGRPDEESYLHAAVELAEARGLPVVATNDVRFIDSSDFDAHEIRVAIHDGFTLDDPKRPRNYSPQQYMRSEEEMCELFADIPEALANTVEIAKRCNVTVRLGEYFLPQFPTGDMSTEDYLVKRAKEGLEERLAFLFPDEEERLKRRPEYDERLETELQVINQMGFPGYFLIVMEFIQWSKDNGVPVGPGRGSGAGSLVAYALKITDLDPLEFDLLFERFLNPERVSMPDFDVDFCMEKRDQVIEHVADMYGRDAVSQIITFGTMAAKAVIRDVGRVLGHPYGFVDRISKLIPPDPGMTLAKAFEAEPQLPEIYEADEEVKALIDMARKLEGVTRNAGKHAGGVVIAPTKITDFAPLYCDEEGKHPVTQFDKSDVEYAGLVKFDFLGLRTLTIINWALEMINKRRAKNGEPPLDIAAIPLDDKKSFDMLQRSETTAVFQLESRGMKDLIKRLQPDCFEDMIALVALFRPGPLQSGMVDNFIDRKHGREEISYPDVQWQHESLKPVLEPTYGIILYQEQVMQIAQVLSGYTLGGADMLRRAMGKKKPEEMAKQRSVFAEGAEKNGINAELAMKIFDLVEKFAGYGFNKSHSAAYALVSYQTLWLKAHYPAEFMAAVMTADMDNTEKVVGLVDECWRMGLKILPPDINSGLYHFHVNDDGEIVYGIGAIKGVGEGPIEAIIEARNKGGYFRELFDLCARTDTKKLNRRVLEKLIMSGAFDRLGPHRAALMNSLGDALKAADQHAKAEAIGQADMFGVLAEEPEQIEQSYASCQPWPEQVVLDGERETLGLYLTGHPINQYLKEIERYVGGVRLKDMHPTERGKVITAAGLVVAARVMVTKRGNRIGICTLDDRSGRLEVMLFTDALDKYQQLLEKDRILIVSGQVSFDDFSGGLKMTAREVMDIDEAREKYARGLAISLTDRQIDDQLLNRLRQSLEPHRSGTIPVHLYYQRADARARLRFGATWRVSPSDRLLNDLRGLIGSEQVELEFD
# protocol.summary: In vitro activity against DNA III Polymerase E, E. coli
# Assay type: biochemical
# reported.conditions: DNA polymerase III, E. coli; read-out: IC50 semiquantitative scoring, E. coli
Attribute: IC50

COCC(=O)[C@H]1OC(=O)[C@H](COC)[C@H]2C=C[C@H]3[C@H]4O[C@]2(/C(C)=C/[C@H]1C)[C@@H]3[C@H](O)[C@@H](COC)[C@H]4OC(=O)c1ccc[nH]1 ... > 17.4 µM

IC50 reported for this compound COC[C@@H]1[C@@H](O)[C@@H]2[C@H]3C=C[C@@H]4[C@@H](COC)C(=O)O[C@H]([C@H](O)COC)[C@H](C)/C=C(\C)[C@@]24O[C@H]3[C@@H]1OC(=O)c1ccc(C)[nH]1 : > 17 µM

IC50 reported for this compound CO[C@H]1C[C@H]2C=C[C@H]3[C@H]4O[C@]2(/C(C)=C/[C@@H](C)[C@@H]([C@@H](C)O)OC1=O)[C@@H]3[C@H](O)[C@@H](C)[C@H]4OC(=O)c1ccc[nH]1 [Nargenicin A1, reference compound] : 0.00194 to 1.94 µM

IC50 reported for this compound COC[C@@H](O)[C@H]1OC(=O)[C@H](COC)[C@H]2C=C[C@H]3[C@H]4O[C@]2(/C(C)=C/[C@H]1C)[C@@H]3[C@H](O)[C@@H](C)[C@H]4OC(=O)c1cc(F)c[nH]1 : 1.77 to 17.7 µM

IC50 reported for this compound COCC(=NO)[C@H]1OC(=O)[C@H](COC)[C@H]2C=C[C@H]3[C@H]4O[C@]2(/C(C)=C/[C@H]1C)[C@@H]3[C@H](O)[C@@H](COC)[C@H]4OC(=O)c1ccc[nH]1 : 1.7 to 17 µM
